Each entry below lists one item and its recorded sBFE (Specific Basic Flow Energy) value.
procedure details: FT4 powder rheometer powder characterization (8-parameter model)
Type: physicochemical
measurement conditions: FT4, Group 1, 25 mm_1C_Split_Rep+VFR_R01; reference powders
I only need the number, in mJ/g, no unit after it.

// known answers, use as guide
molecule	obs value
CC1(N)CCN(c2cccnc2NC(=O)c2nc(-c3ncccc3C(F)(F)F)cnc2N)CC1 [5. LXS196, reference compound]	26
CCC(=O)N1CC[C@H](Nc2ncnc3c2CN(c2cnc(OC)c(C(F)(F)F)c2)CC3)C1 [6. CDZ173, reference compound]	29
CN(C)C(=O)c1cc2cnc(Nc3ccc(N4CCNCC4)cn3)nc2n1C1CCCC1 [1. LEE011, reference compound]	38
CCC(=O)N1CC[C@H](Nc2ncnc3c2CN(c2cnc(OC)c(C(F)(F)F)c2)CC3)C1 [7. CDZ173, reference compound]	82

[Q] Return the recorded sBFE (Specific Basic Flow Energy) value; entry: OC[C@H]1O[C@@H](O[C@H]2[C@H](O)[C@@H](O)[C@@H](O)O[C@@H]2CO)[C@H](O)[C@@H](O)[C@H]1O [4. Lactose 125M, reference compound]
[A] 16

###

Quick reference: MPS-15 (major Principal Stress @ 15 kPa) of the listed items.
procedure details: FT4 powder rheometer powder characterization (8-parameter model)
Type: physicochemical
measurement conditions: FT4, Group 2, 25 mm_Shear_15 kPa; reference powders
Give just the number in kPa; leave the unit off.

Here are 3 compounds together with their reported answers.
> print(dat)
                                   compound  units  obs.value
1  CCC(=O)N1CC[C@H](Nc2ncnc3c2CN(c2cnc(OC)c(C(F)(F)F)c2)CC3)C1 [7. CDZ173, reference compound]    kPa        9.6
2  CCC(=O)N1CC[C@H](Nc2ncnc3c2CN(c2cnc(OC)c(C(F)(F)F)c2)CC3)C1 [6. CDZ173, reference compound]    kPa         50
3  CC1(N)CCN(c2cccnc2NC(=O)c2nc(-c3ncccc3C(F)(F)F)cnc2N)CC1 [5. LXS196, reference compound]    kPa         27

Alright, here's another compound for you.
[Q] Note MPS-15 (major Principal Stress @ 15 kPa) for the compound shown: CN(C)C(=O)c1cc2cnc(Nc3ccc(N4CCNCC4)cn3)nc2n1C1CCCC1 [1. LEE011, reference compound]
[A] 42

###

Recorded CBD-15 (Consolidated Bulk Density @ 15 kPa) by entry
procedure details: FT4 powder rheometer powder characterization (8-parameter model)
Type: physicochemical
measurement conditions: FT4, Group 2, shear cell; reference powders
Excerpt: A standard FT4 powder rheometer offers at least 6 powder characterization methods (per measurement cylinder diameter). Those selected for analysis are 25 mm_1C_Split_Rep+VFR_R01; 25 mm_Compressibility_1-15 kPa; 25 mm_Wall Friction_30 kPa. Each characterization method produces several kind of response parameters (default or manually selectable). […]
The answer is to be given in g/mL; state only the numeric part.

[Q] Retrieve CBD-15 (Consolidated Bulk Density @ 15 kPa) measured for CCC(=O)N1CC[C@H](Nc2ncnc3c2CN(c2cnc(OC)c(C(F)(F)F)c2)CC3)C1 [7. CDZ173, reference compound] and print it.
[A] 0.2

###

Below, each entry is listed with its recorded FF-15 (Flow function @ 15 kPa).
procedure details: FT4 powder rheometer powder characterization (8-parameter model)
Format: physicochemical
measurement conditions: FT4, Group 2, shear cell; dimensionless; reference powders

Past entries and their recorded results:
> print(dat)
                                   compound                    test.readout  obs.value
1  CN(C)C(=O)c1cc2cnc(Nc3ccc(N4CCNCC4)cn3)nc2n1C1CCCC1 [1. LEE011, reference compound]  FF-15 (Flow function @ 15 kPa)        5.8
2  CCC(=O)N1CC[C@H](Nc2ncnc3c2CN(c2cnc(OC)c(C(F)(F)F)c2)CC3)C1 [6. CDZ173, reference compound]  FF-15 (Flow function @ 15 kPa)        1.4
3  CC1(N)CCN(c2cccnc2NC(=O)c2nc(-c3ncccc3C(F)(F)F)cnc2N)CC1 [5. LXS196, reference compound]  FF-15 (Flow function @ 15 kPa)         15

[Q] Tell me FF-15 (Flow function @ 15 kPa) reported for CCC(=O)N1CC[C@H](Nc2ncnc3c2CN(c2cnc(OC)c(C(F)(F)F)c2)CC3)C1 [7. CDZ173, reference compound]
[A] 5

###

Measured CPS (Compressibility) values are reported for all entries that follow.
procedure details: FT4 powder rheometer powder characterization (8-parameter model)
Assay type: physicochemical
measurement conditions: FT4, Group 3, 25 mm_Compressibility_1-15 kPa; reference powders
Supply the numeric figure in %, leaving out any unit text.

Study these solved cases before continuing.
compound	CPS (Compressibility) / %
CN(C)C(=O)c1cc2cnc(Nc3ccc(N4CCNCC4)cn3)nc2n1C1CCCC1 [1. LEE011, reference compound]	26
CCC(=O)N1CC[C@H](Nc2ncnc3c2CN(c2cnc(OC)c(C(F)(F)F)c2)CC3)C1 [6. CDZ173, reference compound]	43
OC[C@H]1O[C@@H](O[C@H]2[C@H](O)[C@@H](O)[C@@H](O)O[C@@H]2CO)[C@H](O)[C@@H](O)[C@H]1O [4. Lactose 125M, reference compound]	13
CCC(=O)N1CC[C@H](Nc2ncnc3c2CN(c2cnc(OC)c(C(F)(F)F)c2)CC3)C1 [7. CDZ173, reference compound]	56

We now examine a further compound.
[Q] Fill in reported CPS (Compressibility) for this entry: CC1(N)CCN(c2cccnc2NC(=O)c2nc(-c3ncccc3C(F)(F)F)cnc2N)CC1 [5. LXS196, reference compound]
[A] 11

###

Catalogue of compounds with associated SI (Stability Index)
procedure details: FT4 powder rheometer powder characterization (8-parameter model)
Format: physicochemical
measurement conditions: FT4, Group 1; dimensionless; reference powders
Reply with just the number.

Use these answered entries as a reference point.
> print(dat)
                                   compound          test.readout  obs.value
1  CCC(=O)N1CC[C@H](Nc2ncnc3c2CN(c2cnc(OC)c(C(F)(F)F)c2)CC3)C1 [6. CDZ173, reference compound]  SI (Stability Index)        1.5
2  CN(C)C(=O)c1cc2cnc(Nc3ccc(N4CCNCC4)cn3)nc2n1C1CCCC1 [1. LEE011, reference compound]  SI (Stability Index)        0.9
3  CCC(=O)N1CC[C@H](Nc2ncnc3c2CN(c2cnc(OC)c(C(F)(F)F)c2)CC3)C1 [7. CDZ173, reference compound]  SI (Stability Index)        1.1

[Q] Kindly indicate its recorded SI (Stability Index). Item: CC1(N)CCN(c2cccnc2NC(=O)c2nc(-c3ncccc3C(F)(F)F)cnc2N)CC1 [5. LXS196, reference compound]
[A] 1.1

###

procedure details: FT4 powder rheometer powder characterization (8-parameter model)
Format: physicochemical
measurement conditions: FT4, Group 4, 25 mm_Wall Friction_30 kPa; reference powders
test readout: WFA (Wall Friction Angle) (°)
Answer in °, number only, no unit symbol.

Here are 2 molecules together with their reported answers.
molecule	obs value
CN(C)C(=O)c1cc2cnc(Nc3ccc(N4CCNCC4)cn3)nc2n1C1CCCC1 [1. LEE011, reference compound]	40
CCC(=O)N1CC[C@H](Nc2ncnc3c2CN(c2cnc(OC)c(C(F)(F)F)c2)CC3)C1 [6. CDZ173, reference compound]	50

[Q] Item OC[C@H]1O[C@@H](O[C@H]2[C@H](O)[C@@H](O)[C@@H](O)O[C@@H]2CO)[C@H](O)[C@@H](O)[C@H]1O [4. Lactose 125M, reference compound] : provide WFA (Wall Friction Angle)
[A] 27

[Q] Find the measured WFA (Wall Friction Angle) of CC1(N)CCN(c2cccnc2NC(=O)c2nc(-c3ncccc3C(F)(F)F)cnc2N)CC1 [5. LXS196, reference compound] and report it.
[A] 29

[Q] Using known records, supply WFA (Wall Friction Angle) for CCC(=O)N1CC[C@H](Nc2ncnc3c2CN(c2cnc(OC)c(C(F)(F)F)c2)CC3)C1 [7. CDZ173, reference compound]
[A] 37

###

procedure details: FT4 powder rheometer powder characterization (8-parameter model)
Type: physicochemical
measurement conditions: FT4, Group 2, shear cell; reference powders
Reported CBD-15 (Consolidated Bulk Density @ 15 kPa) values for the following compounds.
Just the number in g/mL, nothing appended.

These solved cases illustrate the format of a correct answer.
> print(dat)
                                   compound  obs.value
1  CCC(=O)N1CC[C@H](Nc2ncnc3c2CN(c2cnc(OC)c(C(F)(F)F)c2)CC3)C1 [6. CDZ173, reference compound]       0.26
2  CN(C)C(=O)c1cc2cnc(Nc3ccc(N4CCNCC4)cn3)nc2n1C1CCCC1 [1. LEE011, reference compound]        0.6

Consider the record given below.
[Q] Supply recorded CBD-15 (Consolidated Bulk Density @ 15 kPa) for CC1(N)CCN(c2cccnc2NC(=O)c2nc(-c3ncccc3C(F)(F)F)cnc2N)CC1 [5. LXS196, reference compound] here.
[A] 0.7

These measurements were taken from patent US20220175682A1.
